# credit: patent US20230365589A1

Recorded pIC50 by entry
Assayed Target: DYRK1A (Homo sapiens, UniProt Q13627)
Construct: purchased Carna Biosciences, Inc. 04-130
Run Description: Inhibition test on activity of DYRK family, mobility shift assay (MSA): DYRK1A
Type: biochemical
Measurement Conditions: read-out: Inhibitory activity DYRK 1A
pIC50: −log10 of the molar value.

Incoming: Report measured pIC50; entry is CO[C@H]1C[C@@H]2[C@H](CO1)NC(=O)N2c1nc2c3c(ccc2s1)OCC3
Outgoing: 7.00 to 8.00

Incoming: Report measured pIC50; entry is C[C@@H]1NC(=O)N(c2nc3c4c(ccc3s2)OCC4)[C@@H]1CN1CC(F)(F)C1
Outgoing: 7.00 to 8.00

Incoming: Report measured pIC50; entry is C#CCN1CC[C@@H]2NC(=O)N(c3nc4c5c(ccc4s3)OCC5)[C@@H]2C1 (single isomer, unassigned) [Example 114]
Outgoing: > 8.00

Incoming: Report measured pIC50; entry is C[C@H]1C[C@H]2NC(=O)N(c3nc4c5c(ccc4s3)OCC5)C2CN1C (some centres unmarked)
Outgoing: 6.00 to 7.00

--- query ---
Incoming: Report measured pIC50; entry is N#C[C@H]1C[C@@H]2[C@H](CO1)NC(=O)N2c1nc2c3c(ccc2s1)OCC3
Outgoing: > 8.00

====

Recorded IC50 by entry
Assayed Target: DYRK2 (Homo sapiens, UniProt Q92630)
Construct: purchased Carna Biosciences, Inc. 04-132
Sequence (Q92630 74-601 limits assumed): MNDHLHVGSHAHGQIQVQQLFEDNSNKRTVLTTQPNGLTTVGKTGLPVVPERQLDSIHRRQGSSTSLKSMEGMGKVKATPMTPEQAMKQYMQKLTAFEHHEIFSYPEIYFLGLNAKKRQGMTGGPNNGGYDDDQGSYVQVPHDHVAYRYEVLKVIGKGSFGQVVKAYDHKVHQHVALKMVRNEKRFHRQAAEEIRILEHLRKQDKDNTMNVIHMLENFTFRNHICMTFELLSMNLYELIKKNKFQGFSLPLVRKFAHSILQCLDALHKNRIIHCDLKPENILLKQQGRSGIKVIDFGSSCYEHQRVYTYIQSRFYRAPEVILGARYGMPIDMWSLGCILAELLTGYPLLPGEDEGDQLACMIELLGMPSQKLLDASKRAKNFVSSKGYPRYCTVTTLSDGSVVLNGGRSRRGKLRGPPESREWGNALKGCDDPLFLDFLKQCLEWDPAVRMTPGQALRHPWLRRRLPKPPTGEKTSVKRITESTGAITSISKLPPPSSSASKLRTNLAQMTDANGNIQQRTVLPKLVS
Run Description: Inhibition test on activity of DYRK family, mobility shift assay (MSA): DYRK2
Type: biochemical
Measurement Conditions: MSA, FITC-labeled DYRKtide peptide, ATP 40 μM; read-out: Inhibitory activity DYRK 2 (IC50 class)

// solved cases for IC50 follow
Incoming: # assay system DYRK2 (Homo sapiens, UniProt Q92630): give IC50 of O=C1N[C@H]2CO[C@@H](CF)C[C@H]2N1c1nc2c3c(ccc2s1)OCC3
Outgoing: 100 to 1000 nM

Incoming: # assay system DYRK2 (Homo sapiens, UniProt Q92630): give IC50 of O=C1N[C@H]2CNC[C@H](F)[C@H]2N1c1nc2c3c(ccc2s1)OCC3
Outgoing: 100 to 1000 nM

Incoming: # assay system DYRK2 (Homo sapiens, UniProt Q92630): give IC50 of CC(C)N1CC[C@H]2NC(=O)N(c3nc4c5c(ccc4s3)OCC5)[C@H]2C1 (relative stereo)
Outgoing: ≥ 1000 nM

Incoming: # assay system DYRK2 (Homo sapiens, UniProt Q92630): give IC50 of CC[C@H]1C[C@@H]2[C@H](CO1)NC(=O)N2c1nc2c3c(ccc2s1)OCC3
Outgoing: 100 to 1000 nM

Incoming: # assay system DYRK2 (Homo sapiens, UniProt Q92630): give IC50 of CN1C[C@@H]2NC(=O)N(c3nc4c5c(ccc4s3)OCC5)[C@@H]2CC12CC2
Outgoing: ≥ 1000 nM

Next:
Incoming: # assay system DYRK2 (Homo sapiens, UniProt Q92630): give IC50 of CN1C[C@@H]2NC(=O)N(c3nc4c5c(ccc4s3)OCC5)[C@@H]2[C@@H](F)C1
Outgoing: ≥ 1000 nM

Incoming: # assay system DYRK2 (Homo sapiens, UniProt Q92630): give IC50 of O=C1N[C@H]2CCN(C3COC3)C[C@@H]2N1c1nc2c3c(ccc2s1)OCC3
Outgoing: 100 to 1000 nM

Incoming: # assay system DYRK2 (Homo sapiens, UniProt Q92630): give IC50 of CC[C@H]1C[C@@H]2[C@H](CO1)NC(=O)N2c1nc2c3c(ccc2s1)OCO3
Outgoing: 100 to 1000 nM

====

Assayed Target: DYRK1B (Homo sapiens, UniProt Q9Y463)
Construct: purchased Carna Biosciences, Inc. 04-131
Sequence (Q9Y463 whole entry): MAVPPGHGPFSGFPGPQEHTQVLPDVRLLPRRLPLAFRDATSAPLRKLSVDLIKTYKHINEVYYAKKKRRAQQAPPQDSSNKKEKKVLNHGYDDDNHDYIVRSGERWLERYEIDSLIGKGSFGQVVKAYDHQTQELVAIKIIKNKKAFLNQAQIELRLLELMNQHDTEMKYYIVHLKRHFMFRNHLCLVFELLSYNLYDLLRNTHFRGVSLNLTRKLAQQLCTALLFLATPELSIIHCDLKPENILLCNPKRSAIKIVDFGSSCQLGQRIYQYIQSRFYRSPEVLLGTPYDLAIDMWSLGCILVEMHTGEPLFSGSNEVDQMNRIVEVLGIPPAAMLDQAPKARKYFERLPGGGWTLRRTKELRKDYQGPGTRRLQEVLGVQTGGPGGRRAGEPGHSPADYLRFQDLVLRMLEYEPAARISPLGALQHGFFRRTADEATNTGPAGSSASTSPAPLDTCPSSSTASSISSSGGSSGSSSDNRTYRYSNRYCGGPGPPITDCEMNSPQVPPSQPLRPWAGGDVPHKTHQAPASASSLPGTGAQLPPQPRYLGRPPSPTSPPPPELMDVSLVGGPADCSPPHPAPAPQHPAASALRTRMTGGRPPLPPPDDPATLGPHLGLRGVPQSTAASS
Run Description: Inhibition test on activity of DYRK family, mobility shift assay (MSA): DYRK1B
Format: biochemical
Measurement Conditions: MSA, FITC-labeled DYRKtide peptide, ATP 200 μM; read-out: Inhibitory activity DYRK 1B (IC50 class)
Protocol: [Inhibition Test on Activity of DYRK Family (DYRK1A, DYRK1B, DYRK2, and DYRK3)] The kinase activity was measured by mobility shift assay (MSA) method using QuickScout Screening Assist™ MSA (commercially available kit manufactured by Carna Biosciences, Inc.). […] The heights of the peaks of the “substrate” and the “phosphorylated substrate” were expressed as S and P, respectively, and a blank containing the assay buffer instead of the enzyme solution was also measured. […]
Measured Property: IC50

Incoming: Report measured IC50; entry is O=C1N[C@H]2CO[C@H](CF)[C@H]2N1c1nc2c3c(ccc2s1)OCC3
Outgoing: 10 to 100 nM

Next:
Incoming: Report measured IC50; entry is O=C1N[C@H]2CCN(C3CC3)C[C@H]2N1c1nc2c3c(ccc2s1)OCCO3 (single isomer, unassigned)
Outgoing: 10 to 100 nM

Incoming: Report measured IC50; entry is O=C1NC2CNCC2N1c1nc2c3c(ccc2s1)OCC3 (stereo not shown)
Outgoing: 100 to 1000 nM

Incoming: Report measured IC50; entry is CN1CC[C@@H]2NC(=O)N(c3nc4c5c(ccc4s3)OCC5)[C@@H]2C1 (single isomer, unassigned) [Example 28]
Outgoing: 10 to 100 nM

====

Assayed Target: DYRK2 (Homo sapiens)
Construct: purchased Carna Biosciences, Inc. 04-132
Run Description: Inhibition test on activity of DYRK family, mobility shift assay (MSA): DYRK2
Type: biochemical
Measurement Conditions: MSA, FITC-labeled DYRKtide peptide, ATP 40 μM; read-out: Inhibitory activity DYRK 2 (IC50 class)
pIC50: −log10 of the molar value.
Measured Property: pIC50

// solved cases for pIC50 follow
Incoming: Report measured pIC50; entry is O=C1N[C@H]2CO[C@H](CF)[C@H]2N1c1nc2c3c(ccc2s1)OCC3
Outgoing: 7.00 to 8.00

Incoming: Report measured pIC50; entry is O=C1N[C@H]2CNCC[C@H]2N1c1nc2c3c(ccc2s1)OCCO3
Outgoing: 6.00 to 7.00

Incoming: Report measured pIC50; entry is O=C1N[C@H]2[C@H](F)CNC[C@H]2N1c1nc2c3c(ccc2s1)OCC3
Outgoing: ≤ 6.00

Incoming: Report measured pIC50; entry is O=C1N[C@H]2CCNC[C@H]2N1c1nc2c3c(ccc2s1)OCC3 (relative stereo)
Outgoing: ≤ 6.00

Incoming: Report measured pIC50; entry is O=C1N[C@@H]2CCN(C3CC3)C[C@@H]2N1c1nc2c3c(ccc2s1)OCCO3 (single isomer, unassigned) [Example 33]
Outgoing: ≤ 6.00

Incoming: Report measured pIC50; entry is C[C@@H]1NC(=O)N(c2nc3c4c(ccc3s2)OCC4)[C@@H]1CN1CCOCC1
Outgoing: 6.00 to 7.00

--- query ---
Incoming: Report measured pIC50; entry is CN1CC[C@H]2NC(=O)N(c3nc4c5c(ccc4s3)OCC5)[C@H]2C1 (single isomer, unassigned)
Outgoing: ≤ 6.00

====

Assayed Target: DYRK2 (Homo sapiens, UniProt Q92630)
Construct: purchased Carna Biosciences, Inc. 04-132
Run Description: Inhibition test on activity of DYRK family, mobility shift assay (MSA): DYRK2
Format: biochemical
Measurement Conditions: MSA, FITC-labeled DYRKtide peptide, ATP 40 μM; read-out: Inhibitory activity DYRK 2 (IC50 class)
pIC50: −log10 of the molar value.
Recorded pIC50 by entry

// solved cases for pIC50 follow
Incoming: Report measured pIC50; entry is CC(C)N1CC2NC(=O)N(c3nc4c5c(ccc4s3)OCC5)C2C1 (stereo not drawn)
Outgoing: ≤ 6.00

Incoming: Report measured pIC50; entry is O=C1N[C@H]2CCCN(C3COC3)C[C@H]2N1c1nc2c3c(ccc2s1)OCO3 (racemic)
Outgoing: ≤ 6.00

Incoming: Report measured pIC50; entry is CN1CCC[C@@H]2NC(=O)N(c3nc4c5c(ccc4s3)OCC5)[C@@H]2C1 (relative stereo)
Outgoing: ≤ 6.00

Incoming: Report measured pIC50; entry is O=C1N[C@H]2COC(F)C[C@H]2N1c1nc2c3c(ccc2s1)OCC3 (stereo partly drawn)
Outgoing: 6.00 to 7.00

Next:
Incoming: Report measured pIC50; entry is O=C1N[C@H]2CCN(C3CC3)C[C@H]2N1c1nc2c3c(ccc2s1)OCO3 (single isomer, unassigned)
Outgoing: ≤ 6.00

Incoming: Report measured pIC50; entry is O=C1N[C@H]2CO[C@@H](CO)C[C@H]2N1c1nc2c3c(ccc2s1)OCC3
Outgoing: ≤ 6.00

Incoming: Report measured pIC50; entry is O=C1N[C@H]2CO[C@@H](CO)C[C@H]2N1c1nc2c3c(ccc2s1)OCCO3
Outgoing: ≤ 6.00

Incoming: Report measured pIC50; entry is C[C@H]1C[C@H]2NC(=O)N(c3nc4c5c(ccc4s3)OCC5)[C@H]2CO1
Outgoing: ≤ 6.00

Incoming: Report measured pIC50; entry is C[C@H]1C[C@@H]2[C@H](CO1)NC(=O)N2c1nc2c3c(ccc2s1)OCCO3
Outgoing: 6.00 to 7.00

Incoming: Report measured pIC50; entry is O=C1N[C@H]2CCN(C3CCC3)C[C@H]2N1c1nc2c3c(ccc2s1)OCC3 (racemic)
Outgoing: ≤ 6.00
